System: IGROV1 ovarian
Assay: NCI tumour cell line growth inhibition, 48 h
metric: TGI

{"molecule": "C[C@H]1[C@H](C)N(Cc2ccccc2)P(=O)(C(O)/C=C/c2ccccc2)N1Cc1ccccc1 (stereo partly specified)", "observed_value": "> 25 µM"}
{"molecule": "COc1ccc(/C=C2/C(C)=NN(c3cccc(Cl)c3)/C2=N/c2nc3ccccc3s2)cc1", "observed_value": "46.7 µM"}

What value of measured TGI is listed for COc1cc(OCc2ccc3nc(-c4ccccc4)c(N)nc3c2)cc(OC)c1OC ?
55.9 µM

Another molecule to check: Fc1cc(C2=C[C@H](c3ccc(Cl)cc3)NC(=S)N2)c(Cl)cc1Cl
> 100 µM

Field entry: O=c1cc(CNc2cc(F)cc(F)c2)c2ccc(I)cc2[nH]1
> 100 µM

Note, next up: COc1ccccc1C1CC(=O)CC(c2ccccc2OC)C12C(=O)NC(=S)NC2=O (stereo unspecified)
> 100 µM

###

Tested on: IGROV1 ovarian
Assay: NCI tumour cell line growth inhibition, 48 h; in the data active = GI50 below about 0.43 µM; inactive = the rest
I would appreciate it if you answered using one of these outcomes: active, inactive

Known results for compounds:
{"mol_smiles": "CCN=C1C=CC(=C(c2ccc(N(C)C)cc2)c2ccc(N(C)C)cc2)c2ccccc21", "tested_on": "IGROV1 ovarian", "class_label": "active"}
{"mol_smiles": "COc1cc2nc(Cl)nc(Nc3cccc(C(=O)/C=C/c4ccccc4)c3)c2cc1OC", "tested_on": "IGROV1 ovarian", "class_label": "inactive"}
{"mol_smiles": "CCN(CC)CCOc1ccc(C(=C(C)c2ccc(Cl)cc2)c2ccc(OCCN(CC)CC)cc2)cc1", "tested_on": "IGROV1 ovarian", "class_label": "inactive"}

Then there is this compound:
Query: recorded result category for C=C(C)[C@@H]1CC=C(CO)CC1 in this test
inactive

###

Test system: HT29 colon
Assay: NCI tumour cell line growth inhibition, 48 h; in the data active = GI50 below about 0.43 µM; inactive = the rest
// allowed return values: active, inactive

{"molecule": "COc1ccccc1[N-]C(C1=C([O-])c2ccccc2C1=O)c1ccccc1.COc1ccccc1[N-]C(C1=C([O-])c2ccccc2C1=O)c1ccccc1.[Cu+2] (stereo not drawn)", "class_label": "inactive"}
{"molecule": "COc1ccc(Cn2nc(-c3cc(OC)c(OC)c(OC)c3)c3c2CCc2cnoc2-3)cc1OC", "class_label": "inactive"}
{"molecule": "O=C1C(Cl)=C(N/N=c2/[nH][nH]/c(=N/NC3=C(Cl)C(=O)c4ccccc4C3=O)c3ccccc23)C(=O)c2ccccc21", "class_label": "inactive"}
{"molecule": "C[C@]12CC[C@H]3[C@@H](CCC4=CC(=O)CC[C@@H]43)[C@@H]1CC[C@@H]2OC(=O)N(CCCl)N=O", "class_label": "inactive"}
{"molecule": "COc1ccc2c(c1)CCC1C2CCC2(C)C1CCC2(O)CNC(=O)CCCCC1CCSS1 (stereo not drawn)", "class_label": "inactive"}

In this assay, the call recorded for CSc1nnc(CCSc2ccnc3c(C(F)(F)F)cccc23)o1 was what?
inactive

Now give it for Fc1ccc2[nH]cc(Cc3c[nH]c4ccc(F)cc34)c2c1 too.
inactive

Item: CCCN1C(=O)/C(=c2\sc3n(c2=O)C2C(NN=3)N(CC)C(=O)N2CC)c2ccccc21 (stereo not drawn)
active

###

Listed here are compounds together with their documented TGI.
Tested on: DMS 114 small cell lung
Assay: NCI tumour cell line growth inhibition, 48 h

{"compound": "Cn1c(O)c(C(=O)Nc2cccs2)c(=O)[nH]c1=S", "TGI": "35.9 µM"}
{"compound": "COc1ccccc1[N-]C(C1=C([O-])c2ccccc2C1=O)c1ccccc1.COc1ccccc1[N-]C(C1=C([O-])c2ccccc2C1=O)c1ccccc1.[Cu+2] (centres undefined)", "TGI": "> 100 µM"}

Name the recorded TGI for NCC1(N2CCOCC2)C2CCCC21CO (centres undefined) .
> 100 µM

What about this compound? CN(C)c1ccc(/C=C/C=C\C2=CC(=C\C=C/C=C3C=CC(=[N+](C)C)C=C3)/Sc3ccccc32)cc1
24.4 µM

Can you check CC1=C2CCCC2C/C(=N/Nc2ccc([N+](=O)[O-])cc2[N+](=O)[O-])CC1 (centres undefined) next?
> 100 µM

Query O=P(O)(OCC(O)O)OCC(O)O next
> 100 µM

Also need NC(=O)OCC(COc1ccc(Cl)cc1)OC(=O)c1ccccc1Cl (centres undefined) , thanks.
28.1 µM

###

Tested on: RXF-631 renal
Test: NCI tumour cell line growth inhibition, 48 h
Items are presented alongside their recorded TGI.

{"compound": "O=C(CCn1[nH]c(=O)c(Cl)c(Cl)c1=O)NOCCCc1ccccc1", "tested_on": "RXF-631 renal", "TGI": "> 100 µM"}
{"compound": "NC(=O)OCC(COc1ccc(Cl)cc1)OC(=O)c1ccccc1Cl (stereo not drawn)", "tested_on": "RXF-631 renal", "TGI": "46 µM"}

State the recorded TGI for this entry: COC(=O)c1[nH]c(=S)[nH]c(=O)c1-c1ccc(Cl)cc1
> 50 µM

###

Tested on: DU-145 prostate
Assay: NCI tumour cell line growth inhibition, 48 h
Where a SMILES comes first, the peptide text is derived from it. [ ]: non-standard residue; d: D form. Phe(F5) = N[CH](Cc1c(F)c(F)c(F)c(F)c1F)C(=O)O
Reported TGI values follow for various compounds

{"compound": "CC12CCC=CC1CCC1C2CCC2(C)C(c3ccc(=O)oc3)CCC12O (centres undefined)", "observed_value": "0.165 µM"}
{"compound": "C=C1C(=O)C([Si](C)(C)C)=C2C=C(C)C3(CC3)C12C (centres undefined)", "observed_value": "> 100 µM"}
{"compound": "Cn1c(=O)c2[nH]c(/N=N/N3CCN(CCO)CC3)nc2n(C)c1=O", "observed_value": "> 100 µM"}
{"compound": "Fc1cc(C2=C[C@H](c3ccc(Cl)cc3)NC(=S)N2)c(Cl)cc1Cl", "observed_value": "> 100 µM"}
{"compound": "CC(C)(O)c1ccc(N2CCN(c3nnc(Cc4ccccc4)c4ccccc34)CC2)nc1", "observed_value": "34.8 µM"}
{"compound": "CC(C)OP(=O)(OC(C)C)C(C(C)C)N(C)/C(N)=N\\C1=NC(C(F)(F)F)(C(F)(F)F)N=C(C(C(F)(F)F)C(F)(F)F)O1 (centres undefined)", "observed_value": "25.6 µM"}
{"compound": "CC(C)=CCOc1cc(NC(=S)c2ccoc2C)ccc1Cl", "observed_value": "> 100 µM"}
{"compound": "Cc1cc(N2CCCCC2)nc(N(CCNc2ccnc3cc(Cl)ccc23)Cc2ccco2)n1", "observed_value": "9.2 µM"}

# input compound: CCN(CC)c1ccc(/C=C/c2cc(C)c3ccccc3n2)cc1 ; wanted: its TGI
15.3 µM

Next: Nc1ccn(C2CC(O)C(COP(O)(=S)OC3CC(n4ccc(N)nc4=O)OC3CO)O2)c(=O)n1 (centres undefined)
> 100 µM

Also, COc1ccc(OC)c2sc(N3C(=O)/C(=C/Cc4ccco4)N=C3c3ccccc3)nc12 please.
> 100 µM

Item: COc1ccc(Cn2nc(-c3cc(OC)c(OC)c(OC)c3)c3c2CCc2cnoc2-3)cc1OC
> 100 µM

Also need CC(=O)OC1c2ccccc2CC2(OC(C)=O)c3ccccc3C12 (centres undefined) , thanks.
> 100 µM

Lookup CC1=CC(=O)c2c(O)cccc2C1=O
3.02 µM

What do we get for COC(=O)C(CC(C)C)NC(=O)C(Cc1cnc[nH]1)NC(=O)CNC(=O)C(NC(=O)C(C)NC(=O)C(Cc1c[nH]c2ccccc12)NC(=O)C(CCC(=O)O)NC(=O)C(N)Cc1c(F)c(F)c(F)c(F)c1F)C(C)C (centres undefined) (H-[Phe(F5)]EWAVGHL-OMe; configuration not given here) ?
> 12.5 µM

###

Catalogue of TGI values
System: LOX IMVI melanoma
Test: NCI tumour cell line growth inhibition, 48 h

In the examples that follow, each entry is paired with its recorded TGI.
{"molecule": "NS(=O)(=O)c1cc2c(cc1Cl)NC(C(=O)c1cc(=O)c3ccc(O)cc3o1)=NS2(=O)=O", "TGI": "> 100 µM"}
{"molecule": "CC1(Sc2ccccc2)CN(Cc2ccccc2)C1=O (stereo unspecified)", "TGI": "> 100 µM"}
{"molecule": "Cc1c2cnccc2c(C)c2c1[nH]c1ccc(O)cc12", "TGI": "1.71 µM"}

Quick one: TGI of NC(=O)C(Nc1c(Cl)cccc1Cl)c1cc2cc(Br)ccc2nc1Cl (stereo unspecified) ?
> 100 µM

Here is the next molecule: CC#COP(=O)(OCC)OCC
> 100 µM

Check CCOC(=O)Cc1c[nH]c(=S)[nH]c1=O too.
> 100 µM

Ok, now O=C1C(Cl)=C(N/N=c2/[nH][nH]/c(=N/NC3=C(Cl)C(=O)c4ccccc4C3=O)c3ccccc23)C(=O)c2ccccc21
29.9 µM

Lookup C=C1C(=O)OC2CC3(C)C=CC(=O)C(=C)C3CC12 (stereo unspecified)
1.86 µM
